This collection of values is drawn from PubChem BioAssay AID651815.

Target: DNA dC->dU-editing enzyme APOBEC-3F (Homo sapiens) (UniProt Q8IUX4)
Sequence (Q8IUX4 whole entry, looked up): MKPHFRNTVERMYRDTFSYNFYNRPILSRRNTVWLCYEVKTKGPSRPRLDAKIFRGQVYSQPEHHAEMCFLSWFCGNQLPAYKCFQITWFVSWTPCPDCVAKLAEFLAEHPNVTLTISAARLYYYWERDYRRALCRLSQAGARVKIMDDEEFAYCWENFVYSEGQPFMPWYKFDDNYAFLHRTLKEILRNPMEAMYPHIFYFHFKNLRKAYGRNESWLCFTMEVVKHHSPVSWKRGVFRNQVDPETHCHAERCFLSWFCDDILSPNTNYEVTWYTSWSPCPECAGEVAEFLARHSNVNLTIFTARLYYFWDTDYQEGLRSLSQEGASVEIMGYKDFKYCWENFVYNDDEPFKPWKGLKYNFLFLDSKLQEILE
Test: qHTS for inhibitors of Vif-A3F interactions: Cherry picks counterscreen; also: nearly all actives have a fitted effect of over 65% in size; also: potency is read from the fitted curve at half-maximal effect
Details: HeLa A3F-eYFP/Vif cells, eYFP fluorescence, 24 h; series mostly up to 46.1 µM
The whole screen tested about 2,100 compounds, of which about 1,100 (52%) were called active. Inconclusive results (about 29%) are left out. The set was probably picked from earlier hits. The list shows a part of the results.

{"compound": "COc1cc(C2Nc3ccc4ncccc4c3C3=C2C(=O)CCC3)cc(OC)c1O (stereo not given)", "Potency": "15.8 µM (active)"}
{"compound": "COc1ccc(C2CC(c3ccncc3)=NN2c2ccc(S(N)(=O)=O)cc2)cc1 (stereo not given)", "Potency": "20.6 µM (active)"}
{"compound": "CC1(C)Cc2nc3sc4c(SCC(=O)NCc5ccco5)ncnc4c3cc2CO1", "Potency": "5.59 µM (active)"}
{"compound": "Cc1ccc(C(=O)CSc2nc(-c3ccccc3)ccc2C#N)cc1", "Potency": "16.4 µM (active)"}
{"compound": "CC(=O)Nc1cccc(-c2ccnc3c2CC(C(=O)NCc2cccs2)O3)c1 (stereo not given)", "Potency": "5.59 µM (active)"}
{"compound": "CN(C)c1ccc(/C=C/c2cc(N(C)C)nc3ccccc23)cc1", "Potency": "8.2 µM (active)"}
{"compound": "CC1=C/C(=C\\C=C(C#N)C#N)N(C)c2ccccc21", "Potency": "3.26 µM (active)"}
{"compound": "CCn1c(O)c(/C=N/N=C/c2ccc(OC)cc2)c2cc(C3=NNC(=O)CC3)ccc21", "Potency": "6.51 µM (active)"}
{"compound": "CCN(CC)C(=O)c1ccc(/C=C/c2c[nH]c3ccccc23)[n+](C)c1", "Potency": "16.4 µM (active)"}
{"compound": "CN(C)c1ccc(/C=C/C(=O)c2c(O)c3ccccc3oc2=O)cc1", "Potency": "4.11 µM (active)"}
{"compound": "COc1cccc(NC(=O)c2oc3ccc(S(=O)(=O)N4CCC5(CC4)OCCO5)cc3c2C)c1", "Potency": "13 µM (active)"}
{"compound": "C(=C/c1nccc2c1[nH]c1ccccc12)/c1ccc2c(c1)OCO2", "Potency": "inactive"}
{"compound": "COC(=O)COc1cccc2c(=O)n(CC(=O)NCc3ccccc3)ccc12", "Potency": "4.44 µM (active)"}
{"compound": "COc1ccc(-c2n[nH]c3c2CN(C(=O)c2ccc(OC)c(OC)c2)CC3)cc1", "Potency": "4.44 µM (active)"}
{"compound": "CC1(C(=O)NCc2ccccc2)Cc2c(-c3cccc(C(N)=O)c3)ccnc2O1 (stereo not given)", "Potency": "7.04 µM (active)"}
{"compound": "COc1ccc(NC(=O)c2oc3ccc(S(=O)(=O)N4CCOCC4)cc3c2C)cc1", "Potency": "inactive"}
{"compound": "Cc1ccc(S(=O)(=O)N2CCN(C(=O)CSC(=S)N3CCCC3)CC2)c(C)c1", "Potency": "inactive"}
{"compound": "Cc1cc(C)n(-c2nnc3n2N=C(c2c[nH]c4ccccc24)CS3)n1", "Potency": "12.5 µM (active)"}
{"compound": "Nc1c(C(=O)c2ccccc2)sc2nsc(SCCN3CCOCC3)c12", "Potency": "7.31 µM (active)"}
{"compound": "Cc1cccc(N2CCN(Cc3cn(C)nc3-c3ccccc3F)CC2)n1", "Potency": "6.27 µM (active)"}
{"compound": "N#Cc1ccc(/C=C\\c2nccc3c2[nH]c2ccccc23)cc1", "Potency": "15.8 µM (active)"}
{"compound": "c1ccc(N=NC2=NN(c3ccccc3)CS2)cc1", "Potency": "inactive"}
{"compound": "O=C(O)CSc1c2ccccc2cc2ccccc12", "Potency": "inactive"}
{"compound": "N#Cc1ccc(-c2cccnc2)nc1SCC(=O)c1ccccc1", "Potency": "2.91 µM (active)"}
{"compound": "Nc1cccc(CCc2nc3cc4ccccc4cc3[nH]2)c1", "Potency": "4.44 µM (active)"}
{"compound": "COc1cc(CCC(=O)Nc2nnc(C)s2)cc(OC)c1OC", "Potency": "4.44 µM (active)"}
{"compound": "COc1ccc2nc(N3C(=O)/C(=C/c4ccccc4)NC3=S)sc2c1", "Potency": "13 µM (active)"}
{"compound": "CN1C2=CC=CC=CC2=[N+](C)C12C([N+](=O)[O-])=CC(=[N+]([O-])[O-])C=C2[N+](=O)[O-] (stereo not given)", "Potency": "12.5 µM (active)"}
{"compound": "COc1ccccc1NC(=O)c1sc2ncn(CC(=O)Nc3ccccc3)c(=O)c2c1C", "Potency": "20.6 µM (active)"}
{"compound": "Nc1nn(-c2ccccc2)c(N)c1N=Nc1ccccc1", "Potency": "2.23 µM (active)"}
{"compound": "CC(=O)Oc1ccc(N2C(=O)c3cccc4c([N+](=O)[O-])ccc(c34)C2=O)cc1", "Potency": "inactive"}
{"compound": "COc1ccccc1-c1c(C#N)c(N)nc2c1CCc1ccccc1-2", "Potency": "3.14 µM (active)"}
{"compound": "CC(/C=C/c1ccc(N(C)C)cc1)=N\\N=C(/N)SC1CC(=O)N(c2ccc(C(=O)O)cc2)C1=O (stereo not given)", "Potency": "inactive"}
{"compound": "CN(C)S(=O)(=O)c1ccc(N2CCCC2)c(C(=O)N2CCN(S(=O)(=O)c3ccc(F)c(F)c3)CC2)c1", "Potency": "inactive"}
{"compound": "CCOC(=O)Cc1csc(NC(=O)c2sc3nc4c(C)cc(C)cc4cc3c2N)n1", "Potency": "16.4 µM (active)"}
{"compound": "COc1cc(C2Nc3ccc4ncccc4c3C3=C2C(=O)CCC3)ccc1O (stereo not given)", "Potency": "7.04 µM (active)"}
{"compound": "Cc1cc(OCC(=O)Nc2nnc(C3CC3)s2)ccc1Cl", "Potency": "inactive"}
{"compound": "O=C1S/C(=C/c2ccc(N3CCOCC3)o2)C(=O)N1Cc1c(F)cccc1Cl", "Potency": "2.23 µM (active)"}
{"compound": "CN(C)c1ccc(/C=C/C(=O)c2ccc(O)cc2)cc1", "Potency": "4.61 µM (active)"}
{"compound": "COC(=O)c1ccc(Oc2cc(C)nc(SC)n2)cc1", "Potency": "2.8 µM (active)"}
